test system: CCRIS mutagenicity, Ames/micronucleus/aberration tests; test: CCRIS mutagenicity studies; settings: Test System: AMES SALMONELLA TYPHIMURIUM; Strain/Indicator: TA1535; Metabolic Activation: NONE; Method: PREINCUBATION
The source made the active and inactive calls. The rule behind the calls is not given here.
Outcome codes: True (active), False (inactive)

COMPOUND	LABEL
C1OCOCO1	False
O=c1[nH]c(=O)n([C@H]2C[C@H](O)[C@@H](CO)O2)cc1I	False
Nc1cc(S(=O)(=O)[O-])cc2c1C(=O)/C(=N\Nc1ccc(-c3ccc(N/N=C4\C(=O)c5c(N)cc(S(=O)(=O)[O-])cc5C=C4S(=O)(=O)[O-])c(O)c3)cc1O)C(S(=O)(=O)[O-])=C2.[Cu].[Cu].[Na+].[Na+].[Na+].[Na+]	False
CCCCC(CC)COC(=O)c1ccccc1C(=O)O (stereo unspecified)	False
O=C1CCC(=O)O1	False
ClCC(Cl)Cl	False
CCOCCO	False
Cc1ccccc1C=O	False
Clc1ccccc1Cl	False
Cc1cc(C)cc(N)c1	False
COc1ccc(C)cc1N	False
C=C(C)C#N	False
Nc1ccc(O)c(C(=O)O)c1	False
NCCNCCNCCNCCN	False
CCCCCCOCC1CO1 (stereo unspecified)	True
CC(C)CC(C)N (stereo unspecified)	False
O=C1OC(=O)c2cc([N+](=O)[O-])ccc21	False
NNc1ccccc1	False
CCN(CC)CCCC(C)Nc1c2ccc(Cl)cc2nc2ccc(OC)cc12 (stereo unspecified)	False
O=C1c2ccccc2C(=O)C1(O)O	False
Clc1ccc(COC(Cn2ccnc2)c2ccc(Cl)cc2Cl)cc1 (stereo unspecified)	False
Nc1nc(=O)n([C@H]2C[C@H](O)[C@@H](CO)O2)cc1CCCl	False
Nc1cc(Cl)ccc1Cl	False
Nc1cccc(O)c1	False
CCCCCCCCCCO	False
C/C(C=O)=C\c1ccccc1	False

###

tested on: CCRIS mutagenicity, Ames/micronucleus/aberration tests; assay: CCRIS mutagenicity studies; conditions: Test System: AMES SALMONELLA TYPHIMURIUM; Strain/Indicator: TA100; Metabolic Activation: NONE; Method: STANDARD PLATE
Activity calls are given as the source filed them. No rule for the calls is given here.
Possible outcomes: active, inactive

In [3]: df
Out[3]:
                                    compound     label
 0     CCc1ccccc1NC(=O)c1csc([N+](=O)[O-])c1    active
 1                               CCC(C)(C)OC  inactive
 2  CS(=O)(=O)OC[C@H](O)[C@@H](O)COS(C)(=O)=O    active
 3            CCCCOc1cc(OC)ccc1C(=O)NOC(C)=O    active
 4  O=C(c1ccc([N+](=O)[O-])cc1)[C@@H]1O[C@@H]1c1ccccc1    active
 5                                   CCCCC=O  inactive
 6         O=[N+]([O-])c1ccc(OC[C@H]2CO2)cc1    active
 7         O=C(CCc1ccc(O)cc1)c1c(O)cc(O)cc1O  inactive
 8                        COC(=O)c1ccc(O)cc1  inactive
 9          O=NN1CCSC1CO (centres undefined)    active
10     O=C(CCCN1CCN(c2ccccn2)CC1)c1ccc(F)cc1  inactive
11  CC(=O)ON(OCc1ccc(C(C)(C)C)cc1)C(=O)c1ccccc1    active
12                    Cn1cnc(N=O)c1-c1ccccc1    active
13   O[C@@H]([C@H](O)[C@H](O)CBr)[C@H](O)CBr  inactive

###

system: CCRIS mutagenicity, Ames/micronucleus/aberration tests; experiment: CCRIS mutagenicity studies; conditions: Test System: AMES SALMONELLA TYPHIMURIUM; Strain/Indicator: TA98; Metabolic Activation: HAMSTER, LIVER, S-9, AROCLOR 1254 (10%); Method: PREINCUBATION
Active and inactive are the calls of the source. How the calls were made is not given here.
Outcomes: active, inactive

COMPOUND	LABEL
COc1cc(-c2ccc(N/N=C3\C=C(S(=O)(=O)O)c4ccccc4C3=O)c(OC)c2)ccc1N/N=C1/C=C(S(=O)(=O)O)c2ccccc2C1=O	inactive
CCCCC/C=C\C/C=C\CCCCCCCC(=O)O	inactive
OCC(Br)CBr (centres undefined)	active
CCOC(/C=C(\C)CCC=C(C)C)OCC	inactive
CCN(CC)CCCC(C)Nc1c2ccc(Cl)cc2nc2ccc(OC)cc12 (centres undefined)	active
OCCOCCO	inactive
CCC[CH2][Sn]([CH2]CCC)([O]C(C)=O)[O]C(C)=O	inactive
CN(C)CCN(C)C	inactive
c1ccc(Nc2ccccc2)cc1	inactive
CC/C=C1\OC(=O)c2ccccc21	inactive
[Ga]#[As]	inactive
Nc1cc(S(=O)(=O)[O-])cc2c1C(=O)/C(=N\Nc1ccc(-c3ccc(N/N=C4\C(=O)c5c(N)cc(S(=O)(=O)[O-])cc5C=C4S(=O)(=O)[O-])c(O)c3)cc1O)C(S(=O)(=O)[O-])=C2.[Cu].[Cu].[Na+].[Na+].[Na+].[Na+]	inactive
O=C1c2ccccc2C(=O)C1(O)O	inactive
Cc1c(C)c(Br)c(Br)c(Br)c1Br	inactive

###

test system: CCRIS mutagenicity, Ames/micronucleus/aberration tests; test: CCRIS mutagenicity studies; conditions: Test System: AMES SALMONELLA TYPHIMURIUM; Strain/Indicator: TA100; Metabolic Activation: NONE; Method: STANDARD PLATE
Active and inactive are the calls of the source. The rule behind the calls is not given here.
Outcomes: true (1) for active, false (0) for inactive

                                    molecule      label
 0   CCOC(=O)COc1ccc2c(=O)cc(-c3ccccc3)oc2c1  false (0)
 1                      CN(C)N=Nc1ccc(Br)cc1  false (0)
 2               Oc1cccc2c1ccc1c3ccccc3ccc21  false (0)
 3   COc1cc(Oc2ccc(Cl)cc2Cl)ccc1[N+](=O)[O-]   true (1)
 4  CC(C)(C)C1CCC2(CC1)CO2 (centres undefined)  false (0)
 5                                  C1OCOCO1  false (0)
 6  CC(C)(C)NCC(O)c1ccc(O)c(NC(N)=O)c1 (centres undefined)  false (0)
 7  CN(C)C(=O)c1nc2n(n1)-c1ccc(Cl)cc1C(c1ccccc1Cl)=NC2  false (0)
 8                      O=C(OCCBr)C(=O)OCCBr   true (1)
 9  [N-]=[N+]=NC[C@H]1O[C@H](O)[C@@H](O)[C@@H](O)[C@@H]1O   true (1)
10                     Nc1nc(Cl)c2[nH]cnc2n1   true (1)
11  CC1=CCC(O)(C(C)C)CC1 (centres undefined)  false (0)
12   O=[N+]([O-])c1c(-c2ccc(Cl)cc2)nc2n1CCS2   true (1)
13             Cc1c(N=O)c(=O)n(-c2ccccc2)n1C   true (1)
14             BrCc1cccc2c1-c1cccc3cccc-2c13   true (1)
15  O=c1[nH]c2ccccc2n1C1CCN(CCCC(c2ccc(F)cc2)c2ccc(F)cc2)CC1  false (0)
16                     Cc1ccc2cc3ccccc3cc2c1  false (0)
17                                CC(=O)OCCO  false (0)
18  FC(Cl)C(F)(F)C(F)(F)Cl (centres undefined)  false (0)

###

test system: CCRIS mutagenicity, Ames/micronucleus/aberration tests; assay: CCRIS mutagenicity studies; settings: Test System: AMES SALMONELLA TYPHIMURIUM; Strain/Indicator: TA100; Metabolic Activation: NONE; Method: PREINCUBATION
Calls of active or inactive are those of the source. How the calls were made is not given here.
Labels: YES (active), NO (inactive)

In [3]: df
Out[3]:
                                    compound                                       tgt  label
 0                             Cc1cccc(C)c1N  CCRIS mutagenicity, Ames/micronucleus/aberration tests     NO
 1  NC1CCC(CC2CCC(N)CC2)CC1 (stereo not given)  CCRIS mutagenicity, Ames/micronucleus/aberration tests     NO
 2                          Cc1ccccc1C(=O)Cl  CCRIS mutagenicity, Ames/micronucleus/aberration tests     NO
 3  COc1cc2c(c3oc(=O)c4c(c13)CCOC4=O)[C@@H]1CCO[C@@H]1O2  CCRIS mutagenicity, Ames/micronucleus/aberration tests     NO
 4                       O=C(O)Cc1ccc(Cl)cc1  CCRIS mutagenicity, Ames/micronucleus/aberration tests     NO
 5                             Cc1ccc(C=O)o1  CCRIS mutagenicity, Ames/micronucleus/aberration tests     NO
 6          Cc1noc(NS(=O)(=O)c2ccc(N)cc2)c1C  CCRIS mutagenicity, Ames/micronucleus/aberration tests     NO
 7  COc1cc(OC)c(Cl)c(-n2c(-c3ccccc3)cc(=O)c(C)c2-c2ccc(F)cc2)c1  CCRIS mutagenicity, Ames/micronucleus/aberration tests     NO
 8               O=S(=O)(O)c1ccc2cc(O)ccc2c1  CCRIS mutagenicity, Ames/micronucleus/aberration tests     NO
 9                            COc1cc(N)ccc1C  CCRIS mutagenicity, Ames/micronucleus/aberration tests     NO
10                            Nc1ccc2ncsc2c1  CCRIS mutagenicity, Ames/micronucleus/aberration tests     NO
11               Oc1ccc(Cl)cc1Sc1cc(Cl)ccc1O  CCRIS mutagenicity, Ames/micronucleus/aberration tests     NO
12                             C/C=C(\Cl)C=O  CCRIS mutagenicity, Ames/micronucleus/aberration tests    YES
13           CCC(C)C(C)CO (stereo not given)  CCRIS mutagenicity, Ames/micronucleus/aberration tests     NO
14                    Clc1cc(Cl)c(Cl)c(Cl)c1  CCRIS mutagenicity, Ames/micronucleus/aberration tests     NO
15  COc1cc2c(c3oc4cccc(O)c4c(=O)c13)[C@@H]1C=CO[C@@H]1O2  CCRIS mutagenicity, Ames/micronucleus/aberration tests    YES
16                 Nc1ccc(Cl)cc1[N+](=O)[O-]  CCRIS mutagenicity, Ames/micronucleus/aberration tests     NO
17  CC(C)(C)OC(=O)N/N=C/c1c[n+]([O-])c2ccccc2[n+]1[O-]  CCRIS mutagenicity, Ames/micronucleus/aberration tests    YES
18                C=COc1ccc([N+](=O)[O-])cc1  CCRIS mutagenicity, Ames/micronucleus/aberration tests    YES
19     CC1CCC(C(C)CS)CC1S (stereo not given)  CCRIS mutagenicity, Ames/micronucleus/aberration tests     NO
